measuredOn: Cholesterol 24-hydroxylase (Homo sapiens, UniProt Q9Y6A2)
Sequence (Q9Y6A2 whole entry, looked up): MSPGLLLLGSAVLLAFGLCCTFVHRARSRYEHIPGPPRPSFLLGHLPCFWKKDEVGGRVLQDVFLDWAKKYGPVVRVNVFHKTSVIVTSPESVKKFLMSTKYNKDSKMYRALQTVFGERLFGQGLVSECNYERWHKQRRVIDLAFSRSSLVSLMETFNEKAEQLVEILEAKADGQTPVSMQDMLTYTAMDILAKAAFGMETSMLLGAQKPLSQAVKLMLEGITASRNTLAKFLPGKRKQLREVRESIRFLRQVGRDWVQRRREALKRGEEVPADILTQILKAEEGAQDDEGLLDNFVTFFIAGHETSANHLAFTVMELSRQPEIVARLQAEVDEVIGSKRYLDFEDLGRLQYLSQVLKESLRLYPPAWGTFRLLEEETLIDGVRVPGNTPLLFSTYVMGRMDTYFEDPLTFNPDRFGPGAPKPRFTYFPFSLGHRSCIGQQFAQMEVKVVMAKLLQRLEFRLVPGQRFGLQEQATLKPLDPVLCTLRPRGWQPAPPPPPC
protocol: Stimulation of full-length recombinant human CYP46A1 assessed as cholesterol hydroxylation at 43 uM using cholesterol as substrate in presence of NADPH cytochrome P450 oxidoreductase by gas chromatography-mass spectrometry
readoutKind: Activity (%)

>>> df
                cpdsmiles  measured
0        CC(=O)Nc1ccccc1O       103
1      CC(=O)Nc1cccc(O)c1        87
2     COc1ccc(NC(C)=O)cc1       100
3   CCOc1ccc(NC(=O)CC)cc1       101
4      CC(=O)Nc1ccc(C)cc1       112
5     CC(=O)Nc1ccc(CO)cc1       112
6      CC(=O)Nc1ccc(O)cc1       132
7  CCCCOc1ccc(NC(C)=O)cc1       107
8          CCOc1ccc(N)cc1        50
